// data source = the supplement of paper PMC9170038

Would you mind telling me the reported apparent KD of K4 kissing-loop reporter of each entry?
Test system: K4 kissing-loop RNA reporter;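 also: bound reporter read as fluorescence of individual clusters on recovered sequencing chips by microscopy, with normalized cluster intensities fitted with a binding model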
Assay: apparent KD of K4 kissing-loop reporter; higher = weaker reporter binding
Conditions: Eterna round: R107; input ligand: FMN 200 uM
Give bare numbers, in µM.

Need apparent KD of K4 kissing-loop reporter, item AGCUCAGAGUGACUCGAUAAGAGUCACAAACGAGGACCGGUACGGCCGCCACUCGAAAUAAUGAGAGUGAUGUUCUCGCUGAGCA [#SwitchBubble 2 #StaticStem #K4Late]
0.221

Need apparent KD of K4 kissing-loop reporter, item UGUACCGAGUCAGGAUAUGGCGUCGAAAGACGAAUCUUAGUGAUGUUAGGGAUCUGCGAAAGCAGUCCAGAAGGGACUUGGUACU [FmnBS 26 U37]
0.568

Each sequence below has a recorded value; state its apparent KD of K4 kissing-loop reporter.
1. UAUGAAGGUGGAGGAUAUUGAUUGAGCCUUGGUCAGGAGUGAUGUUCCGGGAAGCCUUGGGUUCAUCGAGAAGGCCAAGGAUAGU [#09 K4 FMN B Same State]
2. GUAGCACUUGACAGUGAUGUUGUCAAGGGCAAGGAUAUCACCUCAGUGAGAAGGUGUCCUUGAUAACUGCUACGGGAAUAUCCCA [Omei KL FMN A Exc D v7]
3. GGUAUCUAUACAGAUACCAGUCGUACGGCUGCAUUACAGGUUAGUGAUGUUAACCUGUACGACCCUUGGCAGCUGUAUAGUAGUA [#14 K4 Theophylline B Exclusion]
4. CCCAAGGGCCUACCGGUAUUAUUAACGGAUACCAGAGGCGAAAGCCUCCCUUGGCAGCCGGGUGUAGUGAUGUUACUCCGGUAGU

0.151
0.603
0.115
0.0834

###

Test system: MS2 coat protein
Assay: apparent KD of MS2 coat protein; designed switch direction (-1 OFF switch, 1 ON switch): -1; higher = weaker reporter binding
Conditions: input ligand: none
Would you mind telling me the reported apparent KD of MS2 coat protein of each entry?
Give bare numbers, in nM.

Please review the entries below; each comes with its answer.
Need apparent KD of MS2 coat protein, item AAAGACCUGGAGGAUAUCAGACACACCAGCGUCUGAGAAGGCCAGACAUGAGGAUCACCCAUGUAGGGUUCUCC [EX6 B.22] (Eterna round: R97, puzzle: Exclusion 6)
29.4

Need apparent KD of MS2 coat protein, item GGGCUCGGAGGAUAUACAAUCUCGGGCUGAAAGGCUCGGGUACAUGAGGAUCACCCAUGUAGAAGGUCGGGCUC [-30.2, -27.6 kcal A 24%, 4bis,4] (Eterna round: R97, puzzle: Exclusion 2)
15.9

Need apparent KD of MS2 coat protein, item CUUUUGUGAGGAUAUUCGUAGUAAAUGAAUAAAAUUAUUACGGAGAAGGCACAUGAGGAUCACCCAUGUUCCUU [Mat - Exclusion 4 - Eli Mod - D32] (Eterna round: R97, puzzle: Exclusion 4)
16.7

Need apparent KD of MS2 coat protein, item ACAUGAGGAUCACCCAUGUCUGGCUGGUCUGCUCCGGUUGUUGAGGAUAUAGUCCGGUGUUCGCGCUAGAAGGUGAGGGCUGGA [Aenatbe mod 40] (Eterna round: R96, puzzle: Exclusion NG 3)
131

Okay, next one:
Need apparent KD of MS2 coat protein, item GCUGCAAAUGUAGGAUAUCUGCACGUGUAGUGCAGAGAAGGACAUGAGGAUCACCCAUGUAGAUCAGCAGCAAUUAAUUUAAUU [ENG1/5-A3] (Eterna round: R96, puzzle: Exclusion NG 1)
42.2

###

Would you mind telling me the reported apparent KD of MS2 coat protein of each entry?
System: MS2 coat protein
Assay: apparent KD of MS2 coat protein; higher = weaker reporter binding
Conditions: Eterna round: R101; input ligand: none
Answer by giving the amount and then stating its unit.

Please review the entries below; each comes with its answer.
Need apparent KD of MS2 coat protein, item GCGGCCCGGGAGAAGGACAUGAGGAUCACCCAUGUCGCCGGGCCCGGGAAACCGGGCCCGGCCAUGUAGGAUAUCCCGGGCCGC [#This is a good prank] (puzzle (switch architecture): Inverted Exclusion NG 2)
0.00459 µM

Need apparent KD of MS2 coat protein, item CCUGCACUUCAAGGAUAUCCAGUCGUUUCGACUGGAGAAGGUGAGGAUCACCCAUCUAGCCUGACGUUUGUCAGGCAUGCAGGU [#AddUracilToBrourdLoops 7 - Jieux - Exclusion NG1] (puzzle (switch architecture): Exclusion NG 1)
0.0843 µM

Need apparent KD of MS2 coat protein, item AAGUGAAAUCAGAAGGGCUCCAGCAAAGCUGGAGCAGGAUAUGAGGAUCACCCAUGUCACCUGACGGUCGAAACGACCGUCAGG [#SharedSequence - IExNG1: 6-2] (puzzle (switch architecture): Inverted Exclusion NG 1)
0.0569 µM

Continuing:
Need apparent KD of MS2 coat protein, item AGGAGAAAUGUAGGAUAUAUAUAUAUAUAUAGGCAAAGCGUAUAUAUAUAUAUAGAAGGACAUGAGGAUCACCCAUGUUUCCCU [#Lowering the energy 12] (puzzle (switch architecture): Small Loop Exclusion NG 1)
0.0102 µM

###

Test system: MS2 coat protein
Assay: apparent KD of MS2 coat protein; designed switch direction (-1 OFF switch, 1 ON switch): -1; higher = weaker reporter binding
Settings: input ligand: none
Kind request: treat 0.03 µM as inclusive, so apparent KD of MS2 coat protein at 0.03 µM or higher is Fulfilled, anything lower is Not fulfilled.

Examples from the recorded data:
Determine whether this sequence has apparent KD of MS2 coat protein no lower than 0.03 µM: GGAGGCCAGUAAGGAUAUUCAUGGUAGAUUCAUGAAGAAGGUACGGAGUGUCCUGACAUGAGGAUCACCCAUGUAGCCUCCAAG [Betien] (Eterna round: R96, puzzle: Exclusion NG 1)
Fulfilled

Determine whether this sequence has apparent KD of MS2 coat protein no lower than 0.03 µM: GCCUCACUUGAGGAUCACCCAAGUCAGGAUAUUCACUGAACUGCGUAGCAAUUCGGCCGAAGAAGGGAUUCGGG [Veala] (Eterna round: R97, puzzle: Exclusion 1)
Fulfilled

Determine whether this sequence has apparent KD of MS2 coat protein no lower than 0.03 µM: CCUCCGGUAUAGGAUAUUUAUGAGCUCAGUUCUAAAGAAGGGUAUACAUGAGGAUCACCCAUGUGUGAAGUUAU [Eternabot (L2) Solution 20] (Eterna round: R97, puzzle: Exclusion 6)
Fulfilled

Continuing:
Determine whether this sequence has apparent KD of MS2 coat protein no lower than 0.03 µM: UGUAGUUCAGGAUAUGAUGUAUAAUACAUGAGGAUCACCCAUGUAGAUCCUGAAUUUACAUCAGAAGGGAAUAUUU [JL-ex5-4.58 Brourd mod] (Eterna round: R97, puzzle: Exclusion 5)
Not fulfilled

Determine whether this sequence has apparent KD of MS2 coat protein no lower than 0.03 µM: ACAAGCUUGUAAUCAUUUAACAUGAGGAUCACCCAUGUAAAUGGAAGAACCAAUUUGAUAUGAUUUACUCGUCUUAU [JR_STOV1_Sub009] (Eterna round: R97, puzzle: Sensor, turn-off variant 1)
Fulfilled

Determine whether this sequence has apparent KD of MS2 coat protein no lower than 0.03 µM: AUGCCCUGAGGAUAUCUCAUCCCGCACAUGAGGAUCACCCAUGUUCUUCUCCGGGCUCCGAGAGAAGGCAGGCCUA [Armus6] (Eterna round: R97, puzzle: Exclusion 5)
Fulfilled

Determine whether this sequence has apparent KD of MS2 coat protein no lower than 0.03 µM: GUUGUUUAUGUAGGAUAUGCCUGGCGUGCCUUUGCAGAAGGACAUGAGGAUCACCCAUGUAUUGCGGUCUGCGUUCAGAUCGCU [salish99_ExNG1_r4_022] (Eterna round: R96, puzzle: Exclusion NG 1)
Fulfilled

Determine whether this sequence has apparent KD of MS2 coat protein no lower than 0.03 µM: GCGCAAAGCUAGGAUAUCCAGGGAUCUUCCCGCGGAGAAGGAGCCACAUGAGGAUCACCCAUGUGGUGAUCCUG [eternacac ex6r4 sub7] (Eterna round: R97, puzzle: Exclusion 6)
Not fulfilled

Determine whether this sequence has apparent KD of MS2 coat protein no lower than 0.03 µM: GUCAGCUCGUGAGGAUAUACAUGAGGAUCACCCAUGUGAUCAAUAGCAGCUUCGGCUGCAUUAAUGUAGAAGGUACGAGCUGAU [ENG2/5-C2] (Eterna round: R96, puzzle: Exclusion NG 2)
Fulfilled

Determine whether this sequence has apparent KD of MS2 coat protein no lower than 0.03 µM: CUUUAGUGAGGAUAUUAGUAGUAAUACAAUAGUAUUACUACUGAGAAGGCACAUGAGGAUCACCCAUGUUCCUC [Mat - Exclusion 4 - Mod of Omei - D79] (Eterna round: R96, puzzle: Exclusion 4)
Not fulfilled

###

System: MS2 coat protein
Assay: apparent KD of MS2 coat protein; designed switch direction (-1 OFF switch, 1 ON switch): 1; higher = weaker reporter binding
Conditions: Eterna round: R95; input ligand: none
Use apparent KD of MS2 coat protein to assign classes; range list: low-valued: < 90 nM; mid-valued: ≥ 90 nM and < 400 nM; high-valued: ≥ 400 nM

Sort into band: GUAAGUUCGAUGCUCGUCUCUCCGUACAAACAUGAGGAUCACCCAUGUGAUCGGGCAGUAGCCCGAUCAGUAUGGCC [Xearlaxe] (puzzle: Sensor for hsa-mir-208a)
low-valued

Sort into band: CACAAUCUAUCUGAGGAUAUCAUGAAAAAAACAUGAGGAUCACCCAUGUGCAGGAAAACUGCAUAUGAGAAGGCAGAUAGAUUGG [salish99_SS2_r3_014] (puzzle: Same State 2)
high-valued

Sort into band: AUAAAACAUGAGGAUCACCCAUGUCAAUAAAGUCGAGGAUAUGGGCAAAUAAAAUAAGAACCAGAAGGCGAAUAAU [salish99_ss1_r3_042] (puzzle: Same State 1)
mid-valued

Sort into band: GGUCCGGCCUGAGCUGGACCGGAGCAUGUACAUGAGGAUCACCCAUGUCAUGUACAGGCUUCUUGCUCGUCUUGUUG [JL-shm-2.16 JL Mod] (puzzle: Sensor for hsa-mir-208a)
high-valued

Sort into band: CGGGUACAUGAGGAUCACCCAUGUUGGAGUAAUGCAGGAUAUGUGAGACGAGAUGAUAAAACAGAAGGGCAAGGAG [JR_SS!_Sub010] (puzzle: Same State 1)
mid-valued

Sort into band: AGAGAACAUGAGGAUCACCCAUGUAGGAUGGGCAUAGGAUAUAGAGGAAUGAGGGAGGAGCUAGAAGGAUGAUGGA [JR_SS1_Sub078] (puzzle: Same State 1)
mid-valued

Sort into band: AAGAAGACGGACAAGGAUAUGUCAAAGGAAACAUGAGGAUCACCCAUGUGGAGAUUGGAAAAGAAACAGAAGGUGUACGGAGAGA [JR_SS2_Sub007] (puzzle: Same State 2)
low-valued

Sort into band: AGGUAACAUGAGGAUCACCCAUGUAAGGUGAACGUAGGAUAUCGAAGAGGUAGAGUAGGACGAGAAGGACGAGGAA [JR_SS1_Sub091] (puzzle: Same State 1)
high-valued

Sort into band: AAAUGUAGGAAACAACAGCAAGAGCAUGUACAUGAGGAUCACCCAUGUCAUGUACAAGCUUUUUGCUGGUCUUAUUA [ak 2 mod of one Eli's designs..] (puzzle: Sensor for hsa-mir-208a)
low-valued
